CC50 at 5 days: recorded values
- test-details: Cytotoxicity in non-infected MT-4 cells (MTT)
- Format: cell-based, human
- experimental-conditions: human
measurement-kind: CC50 at 5 days

[
  {
    "compound": "COc1ccc2c3c1O[C@H]1C[C@@H](O)C=C[C@@]31CC[N+](C)([O-])C2 (some centres unmarked) [Galanthamine N-oxide (3), galanthamine N-oxide]",
    "measurement-kind": "CC50 at 5 days",
    "test-value": "> 25 µg/mL"
  },
  {
    "compound": "O[C@H]1[C@H]2c3cc4c(cc3CN3CCC(=C[C@@H]1O)[C@H]23)OCO4 [Lycorine (4), lycorine]",
    "measurement-kind": "CC50 at 5 days",
    "test-value": "0.48 µg/mL"
  },
  {
    "compound": "Cc1ccnc2c1NC(=O)c1cccnc1N2C1CC1 [Nevirapine, reference compound]",
    "measurement-kind": "CC50 at 5 days",
    "test-value": "> 2 µg/mL"
  },
  {
    "compound": "COC1C=CC23CCN(C)Cc4ccc(O)c(c42)OC3C1 (centres unmarked) [Chlidanthine (1), chlidanthine]",
    "measurement-kind": "CC50 at 5 days",
    "test-value": "> 25 µg/mL"
  },
  {
    "compound": "COc1cc2c(cc1O)[C@@H]1[C@H](OC2=O)[C@@H](OC)[C@@H]2O[C@@]23CCN(C)[C@@H]13 [Galwesine (5), galwesine]",
    "measurement-kind": "CC50 at 5 days",
    "test-value": "71.4 µg/mL"
  },
  {
    "compound": "COc1ccc2c3c1O[C@H]1C[C@H](O)C=C[C@@]31CCNC2 [Epinorgalanthamine (6), epinorgalanthamine]",
    "measurement-kind": "CC50 at 5 days",
    "test-value": "13 µg/mL"
  },
  {
    "compound": "c1cc(CN2CCCNCCNCCCNCC2)ccc1CN1CCCNCCNCCCNCC1 [AMD3100, reference compound]",
    "measurement-kind": "CC50 at 5 days",
    "test-value": "> 5 µg/mL"
  },
  {
    "compound": "COc1ccc2c3c1O[C@H]1C[C@@H](O)C=C[C@@]31CCN(C)C2 [Galanthamine (2), galanthamine, reference compound]",
    "measurement-kind": "CC50 at 5 days",
    "test-value": "> 25 µg/mL"
  }
]
